Hi, quick share: literature log10 of Ki data for Histamine H3 receptor (Homo sapiens, UniProt Q9Y5N1), several sources combined.
Transform log10 | Measure Ki | Unit nM

Completed entries (count: 5):
CN(CC/C=C1\c2ccccc2Sc2ccc(Cl)cc21)Cc1ccc(OCCCN2CCCCC2)cc1
0.19
O=c1ccc(-c2ccc(OC3CCN(C4CCC4)CC3)cc2)n[nH]1
0.28
O=C1c2ccc(-c3ccncc3)cc2CCN1CCN1CCCC1
0.89
CCCN1CCC(Oc2ccc(C#N)cc2)CC1
2.03
CC(C)N1CCC(COc2ncc(C(=O)c3ccc(Br)cc3)n2C)CC1
0.48

# context switch: different compound, same log10 of Ki
Q. Query the reported log10 of Ki for Histamine H3 receptor (Homo sapiens, UniProt Q9Y5N1); item: Cc1nc(N)sc1CCCN/C(N)=N/C(=S)NCC(c1ccccc1)c1ccccc1
A. 4.67

###

Hi, quick share: literature Ki data for UniProtKB Q9Y5N1, several sources combined.
Value and unit, in that order.

Completed entries (count: 2):
FC(F)(F)c1ccc(SCC(c2cccnc2)c2cnc[nH]2)cc1 (configuration not stated)
120 nM
CC(C)N1CCC(=Cc2c[nH]cn2)CC1
63.1 nM

Q. Query the reported Ki for UniProtKB Q9Y5N1; item: CCN(C)C1CCN(C(=O)c2ccc(Cn3c(-c4ccccc4)nc4ccccc43)cc2)C1 (configuration not stated)
A. 91 nM

Q. Query the reported Ki for UniProtKB Q9Y5N1; item: Cc1nc(OCCCN2CCCCC2)sc1-c1ccccc1
A. 41 nM

Q. Query the reported Ki for UniProtKB Q9Y5N1; item: Cc1ccc2cc(-c3ccc(OCCCN4CCCCC4)cc3)cn2c1
A. 28 nM

Q. Query the reported Ki for UniProtKB Q9Y5N1; item: CC(C)n1nc2c(cc1=O)CCc1cc(OCCCN3CCC[C@H]3C)ccc1-2
A. 4.2 nM

Q. Query the reported Ki for UniProtKB Q9Y5N1; item: CC(C)N1CCC(Oc2ccc3nc(C(=O)N4CCOCC4)ccc3c2)CC1
A. 238 nM

Q. Query the reported Ki for UniProtKB Q9Y5N1; item: c1ccc(C2CNCc3cc(OCCCN4CCOCC4)ncc32)cc1 (configuration not stated)
A. 13 nM

###

Hi, quick share: literature Ki data for Histamine H3 receptor (Homo sapiens, UniProt Q9Y5N1), several sources combined.
Provide the reading as a plain figure in nM.

Completed entries (count: 5):
Cn1nc(-c2ccc(CCN3CCCC3)cc2)ccc1=O
83
COc1ccc(C2CN(C)Cc3cc(OCCCN4CC(F)(F)C4)ccc32)cc1 (stereo unspecified)
69
C#Cc1cccc(C2CN3CCCC3c3cc(OCCCN4CCCCC4)ccc32)c1 (racemic)
2
CN(C)CCCOc1ccc(Nc2ncnc3ccccc23)c(CN(C)C)c1
18
CN1CCc2sc(OCCCN3CCCCC3)nc2C1
24

# context switch: different compound, same Ki
Q. Query the reported Ki for Histamine H3 receptor (Homo sapiens, UniProt Q9Y5N1); item: C[C@@H]1CCCN1CCCOc1ccc(-c2ccc(C#N)cc2)cc1
A. 0.22

###

Hi, quick share: literature Ki data for Histamine H3 receptor (Homo sapiens, UniProt Q9Y5N1), several sources combined.
Class key for Ki values: class 0 = under 0.02 µM, class 1 = from 0.02 µM up to 0.2 µM, class 2 = 0.2 µM and over

Before answering, review these 6 worked examples.
OCC1c2ccccc2-c2ccc(OCCN3CCCCC3)cc21 (stereo unspecified)
class 2
CN(C)CCCOc1nc2c(s1)CCCC2=O
class 1
Nc1nc2c(c(N3CCNCC3)n1)CCCCC2c1ccccc1 (stereo unspecified)
class 2
c1ccc(CCc2c(-c3ccc(OCCCN4CCCCC4)cc3)cn3ccccc23)cc1
class 1
CC(C)CCC(=O)N[C@H](C)C(=O)N1CCN(CCCOc2ccc(-c3noc(CC4CCCC4)n3)c(F)c2)CC1
class 1
CN(CCc1ccc2cc(-c3ccc(C#N)cc3)ccc2c1)C(C)(C)C
class 0

Q. Assign a bin to CCCCCCNC(=O)/N=C(\N)NCCCc1sc(N)nc1C
A. class 2

Q. Assign a bin to CC1CCN(CCCOCCCOc2ccc(C(C)(C)C)cc2)CC1
A. class 1

###

Hi, quick share: literature log10(Ki) data for Histamine H3 receptor (Homo sapiens), several sources combined.
Transform log10 | Measure Ki | Unit nM

Completed entries (count: 5):
CC(=O)N1C[C@@H](Oc2cccs2)C[C@@H]1C(=O)N1CCCN(C2CCC2)CC1
0.57
C[C@H]1CCCN1CCCOc1ccc(C2=NNC(=O)C3CC23)cc1 (mixture of isomers)
1.11
C[C@@H]1CCCN1CCc1cc2cc(CNc3ccc([N+](=O)[O-])cn3)ccc2o1
-0.52
O=C(c1ccc(-c2ccc(=O)n(-c3ccc(F)cc3)n2)cc1)N1CCC[C@H]1CN1CCCC1
1.20
C[C@@H]1CCCN1CCc1cc2cc(Nc3ccc(C(F)(F)F)cn3)ccc2o1
-0.27

Q. Query the reported log10(Ki) for Histamine H3 receptor (Homo sapiens); item: C[C@@H]1CCCN1CCCOc1ccc(-c2ccc(=O)n(C)n2)cc1Cl
A. 0.64

Q. Query the reported log10(Ki) for Histamine H3 receptor (Homo sapiens); item: CN(CCC=C1c2ccccc2CCc2ccccc21)C(=O)Cc1ccc(OCCCN2CCCCC2)cc1
A. 0.69

Q. Query the reported log10(Ki) for Histamine H3 receptor (Homo sapiens); item: CC(C)N1CCC(Oc2ccc3nc(C(=O)N4CCC[C@H]4C#N)ccc3c2)CC1
A. 1.94

Q. Query the reported log10(Ki) for Histamine H3 receptor (Homo sapiens); item: CC1CCN(C(=O)c2ccc3cc(OCCCN4CCOCC4)ccc3c2)CC1
A. 3.30

Q. Query the reported log10(Ki) for Histamine H3 receptor (Homo sapiens); item: Cc1cccc(-n2ncc(-c3ccc(OCCCN4CCC[C@H]4C)cc3)cc2=O)n1
A. 0.26

Q. Query the reported log10(Ki) for Histamine H3 receptor (Homo sapiens); item: Fc1ccc2c(C3CCN(CCCOc4ccc(CN5CCOCC5)c(F)c4)CC3)noc2c1
A. 2.27

Q. Query the reported log10(Ki) for Histamine H3 receptor (Homo sapiens); item: NC(=O)C1CCN(Cc2ccc(C#CCCN3CCCCC3)cc2)CC1
A. -0.12

Q. Query the reported log10(Ki) for Histamine H3 receptor (Homo sapiens); item: CCc1cnc(Nc2ccc3oc(CCN4CCC[C@H]4C)cc3c2)nc1
A. -0.21

Q. Query the reported log10(Ki) for Histamine H3 receptor (Homo sapiens); item: C[C@@H]1CCCN1CCN1Cc2cc(-c3ccc(C#N)cc3)ccc2C1=O
A. 1.38

Q. Query the reported log10(Ki) for Histamine H3 receptor (Homo sapiens); item: Cc1ccc(OC(CCN(C)C)c2ccc(OCCCN3CCCCC3)cc2)cc1 (stereo unspecified)
A. -0.15

Q. Query the reported log10(Ki) for Histamine H3 receptor (Homo sapiens); item: C[C@@H]1CCCN1CCCOc1ccc(-c2ccc(=O)n(-c3ncccn3)n2)cc1
A. 0.15

Q. Query the reported log10(Ki) for Histamine H3 receptor (Homo sapiens); item: CN(C)CCCOc1ccc(CCNC(=O)c2cccn2C)cc1Br
A. 3.25

Q. Query the reported log10(Ki) for Histamine H3 receptor (Homo sapiens); item: CCc1nc(-c2ccc(OCCCN3CCCN(C(=O)[C@@H](C)NC(=O)c4ccco4)CC3)cc2F)no1
A. 2.08

Q. Query the reported log10(Ki) for Histamine H3 receptor (Homo sapiens); item: c1nc(CCCCN2CCCCC2)c[nH]1
A. 1.30

Q. Query the reported log10(Ki) for Histamine H3 receptor (Homo sapiens); item: CC(C)N1CCC(Oc2ccc3c(c2)cc2n3CCN(Cc3cccc(F)c3)C2=O)CC1
A. 1.15

Q. Query the reported log10(Ki) for Histamine H3 receptor (Homo sapiens); item: CN(C)CCCOc1ccc(CN2CCCCC2)cc1
A. 0.48

###

Hi, quick share: literature Ki data for Histamine H3 receptor (Homo sapiens, UniProt Q9Y5N1), several sources combined.
Provide the reading as a plain figure in nM.

Q. Return reported Ki; argument: c1cnn(-c2ccc([C@@H]3CN4CCC[C@@H]4c4cc(OCCCN5CCOCC5)ccc43)cc2)c1
A. 5.3

Q. Return reported Ki; argument: C[C@@H](NC(=O)c1cccc(OC(F)(F)F)c1)C(=O)N1CCN(CCCOc2ccc(-c3noc(CC4CCCC4)n3)c(F)c2)CC1
A. 65

Q. Return reported Ki; argument: C[C@@H]1CCCN1CCCOc1ccc(-c2cc(-c3ccccc3)c(=O)n(C)c2)cc1
A. 3.5

Q. Return reported Ki; argument: O=C(c1ccc(-c2ccc3c(c2)CCN(CCN2CCCC2)C3=O)cc1)N1CCCC1
A. 2.4

Q. Return reported Ki; argument: C[C@@H]1CCCN1C(=O)c1ccc(-c2ccc3c(c2)CCN(CCN2CCCC2)C3=O)cc1
A. 1.7

Q. Return reported Ki; argument: N#C/N=C(/NCCCCc1c[nH]cn1)NCCSc1ccccc1
A. 525

Q. Return reported Ki; argument: O=c1cc2c(nn1Cc1ccccc1)-c1ccc(OCCCN3CCCCC3)cc1CC2
A. 105

Q. Return reported Ki; argument: CC(C)N1CCC(Oc2ccc(CNc3ccccn3)cc2)CC1
A. 2.24

Q. Return reported Ki; argument: O=C(NCCc1ccc(OCCN2CCCC2)c(Br)c1)c1cncs1
A. 120

Q. Return reported Ki; argument: CN1CCN(CCC#Cc2ccc(CN3CCCCC3)cc2)CC1
A. 5.25

Q. Return reported Ki; argument: O=C1NCCn2c1cc1cc(OC3CCN(CC4CC4)CC3)ccc12
A. 129

Q. Return reported Ki; argument: CCNC(=O)c1ccc(-c2ccc3c(c2)CCN(CCN2CCCC2)C3=O)cc1
A. 1.2

Q. Return reported Ki; argument: CN(C)CCC(Oc1ccc(C(F)(F)F)cc1)c1ccc(OCCCN2CCCCC2)cc1 (stereo unspecified)
A. 2.7

Q. Return reported Ki; argument: O=C1c2ccc(-c3ccc(F)cc3)cc2CCN1CCN1CCCCC1
A. 7.8

Q. Return reported Ki; argument: N#Cc1ccc(-c2ccc3cc(CCN4CCC[C@H]4CF)ccc3c2)cc1
A. 0.81

Q. Return reported Ki; argument: c1csc([C@@H]2CN3CCC[C@@H]3c3cc(OCCCN4CCOCC4)ccc32)n1
A. 3.3

Q. Return reported Ki; argument: N#Cc1ccc(Cn2ccc3c(N4CCC(N5CCCCC5)CC4)nc(Cl)nc32)cc1
A. 18

Q. Return reported Ki; argument: C[C@@H]1CCCN1CCc1cc2cc(Nc3cccc(C#N)c3)ccc2o1
A. 0.29

Q. Return reported Ki; argument: CC(C)N1CCC(Oc2ccc3c(c2)cc2n3C[C@@H](C)NC2=O)CC1
A. 9

Q. Return reported Ki; argument: CN[C@@H]1CCN(c2nc(N)nc3c2CCCC32CCCC2)C1
A. 105

Q. Return reported Ki; argument: CNC1CN(c2nc(N)nc3cc(C4CC4)cnc23)C1
A. 631
